test: Plasma clearance after intravenous administration dosing (3 mg/kg) in rat
MEASUREMENT LABEL: clearance (mL/min/kg)
Quick reminder: number only, in mL/min/kg, skip the unit.

Input line: Given the entry O=c1[nH]nc(CN2CCC[C@H](OCc3cc(C(F)(F)F)cc(C(F)(F)F)c3)[C@@H]2c2ccccc2)[nH]1 , report its measured clearance.
Output line: 73

###

system: Rattus norvegicus; experiment: Plasma concentration after 3 mg/kg peroral dosing in rat at 0.25 hr; assay type: ADME, organism-based; design: dose 3 mg/kg, route oral; settings: in vivo, po
MEASUREMENT LABEL: Concentration
Put your answer as a value accompanied by its unit after it.

Input line: May I ask what Concentration has been recorded for FC(F)(F)c1cc(CO[C@H]2CCCN(Cc3nnc[nH]3)[C@H]2c2ccccc2)cc(C(F)(F)F)c1 ?
Output line: 116 ng/mL
